- Measured on: Rhodesain (Trypanosoma brucei rhodesiense)
- Assay protocol: Inhibition of Trypanosoma brucei rhodesiense recombinant rhodesain at 100 uM by standard fluorescence assay
Active and inactive are the calls of the source. The calls are words filed in the database; no cut-off is given here.
Observed property: inhibition

Consider the following illustrative entries.
Molecule: CCOC(=O)/C=C/C(=O)O.CCOC(=O)/C=C/C(=O)OC[C@H](CC(N)=O)NC(=O)OC(C)(C)C
Measured on: Rhodesain (Trypanosoma brucei rhodesiense)
inhibition: inactive
//
Molecule: CCOC(=O)/C=C/C(=O)O.CCOC(=O)/C=C/C(=O)OC[C@H](CC(N)=O)NC(=O)[C@@H](NC(=O)OC(C)(C)C)c1ccccc1
Measured on: Rhodesain (Trypanosoma brucei rhodesiense)
inhibition: 51%
//
Molecule: CCOC(=O)/C=C/COC(=O)[C@H](CC(N)=O)NC(=O)[C@@H](NC(=O)OC(C)(C)C)C1CCCCC1
Measured on: Rhodesain (Trypanosoma brucei rhodesiense)
inhibition: inactive
//
Molecule: CCOC(=O)/C=C/COC(=O)[C@H](CCC(N)=O)NC(=O)[C@@H](NC(=O)OC(C)(C)C)C1CCCCC1
Measured on: Rhodesain (Trypanosoma brucei rhodesiense)
inhibition: inactive

Shifting focus to the molecule that follows.
[Q] Please list inhibition recorded for the molecule CCOC(=O)/C=C\C(=O)N[C@@H](Cc1ccccc1)C(=O)OCc1ccccc1
[A] 15%

###

- Measured on: Rhodesain (Trypanosoma brucei rhodesiense, UniProt Q95PM0)
- Sequence (Q95PM0 whole entry): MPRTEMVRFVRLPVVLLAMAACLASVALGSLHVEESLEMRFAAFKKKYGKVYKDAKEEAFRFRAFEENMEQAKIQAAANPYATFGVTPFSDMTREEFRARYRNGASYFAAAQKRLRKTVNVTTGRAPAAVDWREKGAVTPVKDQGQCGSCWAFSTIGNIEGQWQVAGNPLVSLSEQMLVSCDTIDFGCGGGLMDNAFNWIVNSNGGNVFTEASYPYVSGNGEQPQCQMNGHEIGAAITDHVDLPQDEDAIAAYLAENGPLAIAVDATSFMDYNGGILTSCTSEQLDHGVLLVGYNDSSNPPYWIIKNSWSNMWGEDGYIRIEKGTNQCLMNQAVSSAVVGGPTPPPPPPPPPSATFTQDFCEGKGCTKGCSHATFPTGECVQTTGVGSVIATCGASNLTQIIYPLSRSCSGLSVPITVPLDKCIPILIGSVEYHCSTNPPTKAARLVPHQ
- Assay protocol: Inhibition of Trypanosoma brucei rhodesiense recombinant rhodesain using high concentration of enzyme by standard fluorescence assay in presence of detergent
Observed property: Ki (nM)
Record the value in nM, omitting the unit from your answer.

[Q] Report Ki, nothing else, for this molecule: CCOC(=O)/C=C/[C@H](CCC(=O)NC(c1ccccc1)(c1ccccc1)c1ccccc1)NC(=O)[C@@H](NC(=O)OC(C)(C)C)c1ccccc1
[A] 400

###

IC50 reference
- Assay protocol: Cytotoxicity against mouse J774.1 cells
- Format: cell-based
# output: bare number, implied unit µM

Structure smiles string: CCOC(=O)/C=C\C(=O)N[C@@H](Cc1ccccc1)C(=O)N[C@@H](C)C(=O)N[C@@H](CC(C)C)C(=O)OCc1ccccc1
IC50 [µM]: 29

[Q] Recall and state the measured IC50 for CCOC(=O)/C=C\C(=O)N[C@@H](Cc1ccccc1)C(=O)OCc1ccccc1 .
[A] 3.3

[Q] Determine from records and report IC50 for CCOC(=O)/C=C\C(=O)N[C@@H](Cc1ccccc1)C(=O)N[C@@H](C)C(=O)OCc1ccccc1
[A] 3

###

- Measured on: Rhodesain (Trypanosoma brucei rhodesiense, UniProt Q95PM0)
- Assay protocol: Inhibition of Trypanosoma brucei rhodesiense recombinant rhodesain using high concentration of enzyme by standard fluorescence assay
Observed property: pKi
Notebook: values listed as pKi are -log10 of the concentration (mol/L).

[Q] # return recorded pKi for entry CCOC(=O)/C=C/[C@H](CCC(=O)NC(c1ccccc1)(c1ccccc1)c1ccccc1)NC(=O)[C@@H](NC(=O)OC(C)(C)C)c1ccccc1
[A] 6.19

###

- Measured on: Rhodesain (Trypanosoma brucei rhodesiense, UniProt Q95PM0)
- Assay protocol: Inhibition of Trypanosoma brucei rhodesiense recombinant rhodesain by standard fluorescence assay
Reported values of Ki for individual entries
The answer is to be given in nM; state only the numeric part.

Structure smiles string: CCOC(=O)/C=C/[C@@H](CCC(=O)NC(c1ccccc1)(c1ccccc1)c1ccccc1)NC(=O)[C@@H](NC(=O)OC(C)(C)C)c1ccccc1
Ki, nM: 140
--
Structure smiles string: O=C(/C=C\C(=O)N[C@@H](Cc1ccccc1)C(=O)OCc1ccccc1)N[C@@H](Cc1ccccc1)C(=O)O
Ki, nM: 150
--
Structure smiles string: CCOC(=O)/C=C/C(=O)N[C@@H](CCC(=O)NC(c1ccccc1)(c1ccccc1)c1ccccc1)C(=O)OC
Ki, nM: 1400

[Q] State its Ki: O=C(/C=C/C(=O)N[C@@H](Cc1ccccc1)C(=O)OCc1ccccc1)N[C@@H](Cc1ccccc1)C(=O)OCc1ccccc1
[A] 340

[Q] Dear colleague, please send me the reported Ki for CCOC(=O)/C=C/C(=O)N[C@@H](Cc1ccccc1)C(=O)OCc1ccccc1 when you can.
[A] 7600
